# Test system: Trypanosoma brucei
# test.description: Inhibition of Trypanosoma brucei rhodesain assessed as second order rate constant
readout.name: K (×10⁷ /M/min)
Field format: number, assumed ×10⁷ /M/min, no unit text.

Consider the reported K for these compounds:
CC[C@H](C)[C@H](NS(=O)(=O)c1cccc2ccccc12)C(=O)N[C@H](C=O)Cc1c[nH]c2ccccc12 = 3.54
O=C(N[C@@H](Cc1ccccc1)C(=O)N[C@H](/C=C/S(=O)(=O)CCc1ccccc1)CCc1ccccc1)OCc1ccccc1 = 1.09
O=C(N[C@@H](Cc1ccccc1)C(=O)N[C@H](/C=C/S(=O)(=O)Cc1ccccc1)CCc1ccccc1)OCc1ccccc1 = 5.35

Here is the next item to consider.
Entry under review: O=C(N[C@@H](Cc1ccccc1)C(=O)N[C@H](/C=C/S(=O)(=O)c1ccccc1)CCc1ccccc1)OCc1ccccc1 . Reported K?
1.61

* * *

Recorded pIC50 values for a group of molecules are listed next.
# System: Plasmodium falciparum
# test.description: Antiprotozoal activity against Plasmodium falciparum
# Format: functional, organism-based
Scale for pIC50: -log10 of concentration given in mol/L; no unit attached.

COCCNc1nc(C#N)nc(N(Cc2cccc(C(F)(F)F)c2)C2C3CC4CC(C3)CC2C4)n1 (configuration not stated) = 5.74
CCCC1CCC(N(Cc2ccc3c(c2)OCO3)c2nc(C#N)nc(N3CCOCC3)n2)CC1 (configuration not stated) = 5.62
N#Cc1nc(N2CCOCC2)nc(N(Cc2cccc(C(F)(F)F)c2)C2C3CC4CC(C3)CC2C4)n1 (configuration not stated) = 5.96

Entry under review: N#Cc1nc(N2CCOCC2)nc(N(Cc2ccc3c(c2)OCO3)C2CCCCC2)n1 . Reported pIC50?
5.54

* * *

# assayed.system: Papain (Carica papaya, UniProt P00784)
# Sequence (P00784 whole entry): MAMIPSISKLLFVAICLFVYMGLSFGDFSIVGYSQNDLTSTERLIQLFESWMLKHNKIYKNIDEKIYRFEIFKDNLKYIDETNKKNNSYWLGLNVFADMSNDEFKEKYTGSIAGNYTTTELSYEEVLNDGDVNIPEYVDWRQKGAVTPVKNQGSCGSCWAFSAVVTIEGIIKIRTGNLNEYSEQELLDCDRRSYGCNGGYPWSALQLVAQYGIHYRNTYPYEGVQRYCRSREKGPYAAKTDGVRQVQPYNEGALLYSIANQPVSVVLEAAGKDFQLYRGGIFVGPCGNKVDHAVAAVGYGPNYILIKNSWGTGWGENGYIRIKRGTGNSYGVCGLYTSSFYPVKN
readout.name: IC50

Consider the reported IC50 for these compounds:
CCOC(=O)c1ccc(NC(=S)NC(=O)c2ccc(Cl)c(Cl)c2)cc1 = > 50 µM
Cn1nc(C(F)(F)F)cc1-c1ccc(NC(=O)Nc2cccc(C(F)(F)F)c2)s1 = > 50 µM

Here is the next item to consider.
Entry under review: CS(=O)(=O)c1sc(C(=O)NC(=S)Nc2ccc(OC(F)(F)F)cc2)c2ccccc12 . Reported IC50?
> 50 µM

* * *

Parameter IC50, tested on Cruzipain (Trypanosoma cruzi, UniProt P25779), listed per item.
Sequence (P25779 whole entry): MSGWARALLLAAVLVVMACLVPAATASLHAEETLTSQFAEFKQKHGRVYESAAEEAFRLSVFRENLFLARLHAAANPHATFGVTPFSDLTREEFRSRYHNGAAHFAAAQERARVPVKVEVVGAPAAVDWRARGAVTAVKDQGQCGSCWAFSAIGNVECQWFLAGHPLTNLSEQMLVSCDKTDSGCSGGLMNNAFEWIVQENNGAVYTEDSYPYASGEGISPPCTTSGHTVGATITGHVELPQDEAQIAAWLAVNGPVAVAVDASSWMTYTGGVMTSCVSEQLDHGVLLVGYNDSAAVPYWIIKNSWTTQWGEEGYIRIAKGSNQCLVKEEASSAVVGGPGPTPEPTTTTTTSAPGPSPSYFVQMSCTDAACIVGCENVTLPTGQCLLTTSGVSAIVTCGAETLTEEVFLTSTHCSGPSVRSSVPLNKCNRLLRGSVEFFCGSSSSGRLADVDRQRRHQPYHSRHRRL

Consider the reported IC50 for these compounds:
CCCc1c(NC(=O)Nc2ccc(OC(F)(F)F)cc2)cnn1-c1ccc(Cl)cc1 = < 10 µM
CCOC(=O)c1ccc(NC(=S)NC(=O)c2ccc(Cl)c(Cl)c2)cc1 = 1.9 µM

Entry under review: O=C(NC(=S)Nc1ccc(O)cc1)c1sc2ccccc2c1Cl . Reported IC50?
< 10 µM

* * *

Recorded pKi values for a group of compounds are listed next.
# test.description: Inhibition of Trypanosoma brucei rhodesain
Scale for pKi: -log10 of concentration given in mol/L; no unit attached.

Consider the reported pKi for these compounds:
N=C(NC(=O)OCc1ccccc1)NC(=O)c1ccc(C(=O)NCc2cccc(NC(=O)OCc3ccccc3)c2)[nH]1 = 7.00
N=C(NC(=O)OCc1ccccc1)NC(=O)c1ccc(C(=O)NCc2cccc(NC(=O)OCc3ccccc3)c2)o1 = 7.30
N=C(NC(=O)OCc1ccccc1)NC(=O)c1ccc(C(=O)NCc2ccccc2)o1 = 5.68

Here is the next item to consider.
Entry under review: CC(C)(C)OC(=O)NCc1cccc(NC(=O)c2ccc(C(=O)NC(=N)NC(=O)OCc3ccccc3)[nH]2)c1 . Reported pKi?
6.96

* * *

Recorded IC50 values for a group of molecules are listed next.
# Tested on: L6
# test.description: Cytotoxicity against rat L6 cells
# Assay type: cell-based
Give the number first and the unit second.

Consider the reported IC50 for these molecules:
N#Cc1nc(N2CCOCC2)nc(N(Cc2cccc(C(F)(F)F)c2)C2C3CC4CC(C3)CC2C4)n1 (configuration not stated) = 23.2 µM
N#Cc1nc(N2CCOCC2)nc(N(c2ccccc2)c2ccccc2)n1 = 22 µM

Entry under review: N#Cc1nc(N2CCOCC2)nc(N(c2ccccc2F)C2CCCCC2)n1 . Reported IC50?
11.4 µM

Entry under review: N#Cc1nc(N2CCOCC2)nc(N(Cc2ccc3c(c2)OCO3)C2CCCCC2)n1 . Reported IC50?
11.1 µM

Entry under review: COCCNc1nc(C#N)nc(N(Cc2cccc(C(F)(F)F)c2)C2C3CC4CC(C3)CC2C4)n1 (configuration not stated) . Reported IC50?
8.1 µM

Entry under review: CCN(c1nc(C#N)nc(N2CCOCC2)n1)C1CCCCC1 . Reported IC50?
45.5 µM

Entry under review: CCCC1CCC(N(Cc2ccc3c(c2)OCO3)c2nc(C#N)nc(N3CCOCC3)n2)CC1 (configuration not stated) . Reported IC50?
5.9 µM

* * *

Recorded bioavailability values for a group of molecules are listed next.
# test.description: Oral bioavailability in Sprague-Dawley rat
# Type: ADME, organism-based
# experimental.parameters: in vivo
Field format: number, assumed %, no unit text.

O=C(N[C@H](/C=C/S(=O)(=O)c1ccccc1)CCc1ccccc1)[C@H](Cc1ccccc1)NC(=O)N1CCOCC1 = 3

Here is the next item to consider.
Entry under review: CN1CCN(C(=O)N[C@@H](Cc2ccccc2)C(=O)N[C@H](/C=C/S(=O)(=O)c2ccccc2)CCc2ccccc2)CC1 . Reported bioavailability?
19.9

* * *

# assayed.system: Rhodesain (Trypanosoma brucei rhodesiense, UniProt Q95PM0)
# Sequence (Q95PM0 whole entry): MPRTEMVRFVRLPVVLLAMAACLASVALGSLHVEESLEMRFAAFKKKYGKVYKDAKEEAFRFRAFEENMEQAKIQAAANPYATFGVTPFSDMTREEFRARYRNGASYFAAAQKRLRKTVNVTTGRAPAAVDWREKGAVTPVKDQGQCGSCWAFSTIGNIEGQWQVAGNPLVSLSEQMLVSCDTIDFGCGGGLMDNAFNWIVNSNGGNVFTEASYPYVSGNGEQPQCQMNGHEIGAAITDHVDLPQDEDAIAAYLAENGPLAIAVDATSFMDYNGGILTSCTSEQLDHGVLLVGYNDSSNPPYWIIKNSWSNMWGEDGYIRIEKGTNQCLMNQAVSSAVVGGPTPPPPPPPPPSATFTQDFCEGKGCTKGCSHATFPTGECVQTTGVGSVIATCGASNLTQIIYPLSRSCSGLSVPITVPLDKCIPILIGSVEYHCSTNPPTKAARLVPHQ
pKi: −log10 of the molar value.
Outcome: YES for pKi of at least 8; NO for anything lower.

Below, 2 compounds whose answers are already recorded.
CCN(c1nc(C#N)nc(N2CCOCC2)n1)C1CCCCC1 = NO
N#Cc1nc(N2CCOCC2)nc(N(c2ccccc2)c2ccccc2)n1 = NO

Turning to the following compound.
Identify whether the reported pKi of the following compound is 8 or greater: CCCC1CCC(N(Cc2ccc3c(c2)OCO3)c2nc(C#N)nc(N3CCOCC3)n2)CC1 (stereo not given)
YES

* * *

# test.description: Cytotoxicity against human HL60 cells
# Type: cell-based, HL-60
# experimental.parameters: read-out: MIC
Residues, ends and D or L forms follow the SMILES beside them. *: point of attachment. Cbz = O=C(OCc1ccccc1)*
Recorded MCC values for a group of compounds are listed next.

O=C[C@H](Cc1ccc(O)cc1)NC(=O)[C@H](Cc1ccccc1)NC(=O)OCc1ccccc1 (Cbz-Phe-Tyr-aldehyde) = > 100 µM

Here is the next item to consider.
Entry under review: CC[C@H](C)[C@H](NS(=O)(=O)c1cccc2ccccc12)C(=O)N[C@H](C=O)Cc1c[nH]c2ccccc12 . Reported MCC?
> 100 µM

* * *

Recorded CC50 values for a group of compounds are listed next.
# test.description: Cytotoxicity against human HL60 cells
# Assay type: cell-based, HL-60
# experimental.parameters: read-out: ED50 (the source's name)
Residues, ends and D or L forms follow the SMILES beside them. *: point of attachment. Cbz = O=C(OCc1ccccc1)*
Field format: number, assumed µM, no unit text.

CC[C@H](C)[C@H](NS(=O)(=O)c1cccc2ccccc12)C(=O)N[C@H](C=O)Cc1c[nH]c2ccccc12 = 21

Here is the next item to consider.
Entry under review: O=C[C@H](Cc1ccc(O)cc1)NC(=O)[C@H](Cc1ccccc1)NC(=O)OCc1ccccc1 (Cbz-Phe-Tyr-aldehyde) . Reported CC50?
21.5

* * *

Recorded K values for a group of molecules are listed next.
# Test system: Trypanosoma brucei
# test.description: Inhibition of Trypanosoma brucei rhodesain assessed as second order rate constant
Field format: number, assumed ×10⁶ /M/min, no unit text.

Entry under review: CN1CCN(C(=O)N[C@@H](Cc2ccccc2)C(=O)N[C@H](/C=C/S(=O)(=O)c2ccccc2)CCc2ccccc2)CC1 . Reported K?
9

Entry under review: O=C(N[C@@H](Cc1ccccc1)C(=O)N[C@H](/C=C/S(=O)(=O)Nc1ccccc1)CCc1ccccc1)OCc1ccccc1 . Reported K?
2.24

Entry under review: CC(C)C[C@H](NC(=O)N1CCOCC1)C(=O)N[C@H](/C=C/S(=O)(=O)c1ccccc1)CCc1ccccc1 . Reported K?
15.8

* * *

# Test system: Plasmodium falciparum
# test.description: Antiprotozoal activity against Plasmodium falciparum
# Format: functional, organism-based
readout.name: IC50

N#Cc1nc(N2CCOCC2)nc(N(c2ccccc2F)C2CCCCC2)n1 = > 5 µM

Entry under review: N#Cc1nc(N2CCOCC2)nc(N(c2ccccc2)c2ccccc2)n1 . Reported IC50?
> 5 µM

Entry under review: CCN(c1nc(C#N)nc(N2CCOCC2)n1)C1CCCCC1 . Reported IC50?
> 5 µM

* * *

# test.description: Inhibition of Trypanosoma brucei rhodesain
readout.name: Ki (nM)
Field format: number, assumed nM, no unit text.

N=C(NC(=O)OCc1ccccc1)NC(=O)c1ccc(C(=O)NCc2ccccc2)[nH]1 = 50
CC(C)(C)OC(=O)Nc1cccc(CNC(=O)c2ccc(C(=O)NC(=N)NC(=O)OCc3ccccc3)o2)c1 = 5290

Here is the next item to consider.
Entry under review: N=C(NC(=O)OCc1ccccc1)NC(=O)c1ccc(C(=O)NCc2ccc(NC(=O)OCc3ccccc3)cc2)[nH]1 . Reported Ki?
28
